- tested.target: furin, P09958;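 note: purified furin at 1:10 enzyme:substrate in 50 mM HEPES pH 7.5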
- Sequence (P09958 whole entry): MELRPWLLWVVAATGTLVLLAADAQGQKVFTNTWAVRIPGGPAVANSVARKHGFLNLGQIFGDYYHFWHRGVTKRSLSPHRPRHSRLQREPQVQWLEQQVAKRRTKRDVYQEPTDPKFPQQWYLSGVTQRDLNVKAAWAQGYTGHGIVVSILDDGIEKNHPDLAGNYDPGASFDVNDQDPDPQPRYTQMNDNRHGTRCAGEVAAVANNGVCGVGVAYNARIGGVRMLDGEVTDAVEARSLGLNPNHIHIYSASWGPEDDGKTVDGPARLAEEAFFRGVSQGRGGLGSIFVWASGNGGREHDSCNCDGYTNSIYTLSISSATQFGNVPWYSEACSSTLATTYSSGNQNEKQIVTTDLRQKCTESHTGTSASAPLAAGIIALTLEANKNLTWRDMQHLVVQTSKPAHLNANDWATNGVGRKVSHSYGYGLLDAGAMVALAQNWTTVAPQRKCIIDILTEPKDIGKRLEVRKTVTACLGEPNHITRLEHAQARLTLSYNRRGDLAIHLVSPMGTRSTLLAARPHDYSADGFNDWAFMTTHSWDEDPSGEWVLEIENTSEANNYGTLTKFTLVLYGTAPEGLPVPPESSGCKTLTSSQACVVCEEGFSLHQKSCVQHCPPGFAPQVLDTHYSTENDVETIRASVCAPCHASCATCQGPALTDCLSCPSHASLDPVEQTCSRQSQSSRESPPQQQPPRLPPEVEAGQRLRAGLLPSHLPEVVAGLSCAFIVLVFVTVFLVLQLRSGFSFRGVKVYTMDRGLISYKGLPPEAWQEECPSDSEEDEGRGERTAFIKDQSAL
- method.notes: furin cleavage Z-score vs untreated control; higher = more cleavage, active = 3.5 or more, inactive = 1 or less, 8 variable residues between constant flanks
- details: 15 min
The list shows a part of the results. The hit rate among all sequences tested is not known here.
measure.name: furin cleavage Z-score
Lab note: jot the number down without any unit.

Hello, please tell me recorded furin cleavage Z-score for this one: CARSKRSPGGAGNASASA [FS-1931] 8.88

Hello, please tell me recorded furin cleavage Z-score for this one: CARSSKDTSTAGNASASA [FS-2820] -1.51

Hello, please tell me recorded furin cleavage Z-score for this one: CARSPRSASTAGNASASA [FS-1932] 5.46

Hello, please tell me recorded furin cleavage Z-score for this one: CATLSRKKRAAGNASASA [FS-567] 8.88

Hello, please tell me recorded furin cleavage Z-score for this one: CADIPRYKRMAGNASASA [FS-1189] 5.32

Hello, please tell me recorded furin cleavage Z-score for this one: CATTPCSGSFAGNASASA [HC1927] -1.19

Hello, please tell me recorded furin cleavage Z-score for this one: CARKNRSKNQAGNASASA [FS-3223] -0.524

Hello, please tell me recorded furin cleavage Z-score for this one: CATRARSLRFAGNASASA [FS-1099] 2.2

Hello, please tell me recorded furin cleavage Z-score for this one: CATLSRKSRDAGNASASA [FS-1173] 11.3

Hello, please tell me recorded furin cleavage Z-score for this one: CAVKAAASKVAGNASASA [HC1406] 1.05

Hello, please tell me recorded furin cleavage Z-score for this one: CAVKARIKRMAGNASASA [FS-310] 10.6

Hello, please tell me recorded furin cleavage Z-score for this one: CARCDLEDRDAGNASASA [HC486] -0.684

Hello, please tell me recorded furin cleavage Z-score for this one: CAWSKRSLSQAGNASASA [FS-3178] 1.67

Hello, please tell me recorded furin cleavage Z-score for this one: CALFYHHKFNAGNASASA [HC381] -2.1

Hello, please tell me recorded furin cleavage Z-score for this one: CANRKRNKKQAGNASASA [FS-1239] 0.864

Every entry's value here was drawn from the supplement of paper PMC3545927.
